We begin with a simple list: items and their reported growth.
# System: SK-OV-3 ovarian
# ASSAY EXPLANATION: NCI-60 one-dose screen, 48 h (100 = growth as untreated, 0 = no growth, -100 = all killed)
# REPORTED CONDITIONS: 10 µM unless noted
Compounds without any hit were thinned out: in the full panel of roughly 83,000, 20% have a hit.

COMPOUND	TARGET ENTITY	growth (%)
CCC1(CC)C(OC)NC(Br)=C(C#N)C1(C#N)C(N)=O (stereo unspecified)	SK-OV-3 ovarian	114
CC(C)CCCCCOC(=O)c1ccccc1SSc1ccccc1C(=O)OCCCCCC(C)C	SK-OV-3 ovarian	108
N#CC1=C(N2CCOCC2)NC2c3ccccc3Sc3ccccc3N2C1=N (stereo unspecified)	SK-OV-3 ovarian	81.7
COC(=O)[C@@H]1[C@H](O)[C@H](C)[C@H](O)[C@H](C)/C=C\C=C(C)C(=O)Nc2c(C)c(OC(C)=O)c3c(c2O)C(=O)C(C)=C2OCOC(=C23)C(C)=C[C@@](C)(O)[C@H](O)[C@@H](C)[C@H]1OC(C)=O	SK-OV-3 ovarian	109
O=C(Nc1cccc(Cn2c(=O)[nH]c3ccc(Oc4ncccn4)cc3c2=O)c1)c1cc(Cl)cc(Cl)c1	SK-OV-3 ovarian	66.5
COCn1c(C(=O)OC)cc2oc(/C=C3/SC(=S)N(N)C3=O)cc21	SK-OV-3 ovarian	89.6
COc1ccc(OC)c(Cn2cc3c(c2-c2ccccc2)CCc2cnoc2-3)c1	SK-OV-3 ovarian	48.2
CCCCCCCCCCCCCCCCNC(=S)N/N=C/c1ccc(OC)cc1	SK-OV-3 ovarian	114
COc1ccc2sc(-n3nc4nc5n(c(=O)c4c3N)-c3ccccc3Sc3ccccc3-5)nc2c1	SK-OV-3 ovarian	91.8
CC(=N\N=C(N)N)/C(=N/N=C(N)N)c1ccccc1	SK-OV-3 ovarian	102
CCOC(=O)c1c(C)oc2ncnc(Nc3ccc(NC(=O)Nc4cccc(Cl)c4)cc3)c12	SK-OV-3 ovarian	93.3
COc1ccc(Cn2cc3c(c2-c2ccccc2)CCc2cnoc2-3)cc1N	SK-OV-3 ovarian	-4.08
CCOC(=O)C1C(=O)C(=O)N(C(C)C)C1C(=O)OCC (stereo unspecified)	SK-OV-3 ovarian	109
COc1ccc(C2=NN(C(=O)c3cc(-c4ccc(C)cc4)nc4ccccc34)C(c3cc(-c4ccccc4)nn3-c3ccccc3)C2)cc1 (stereo unspecified)	SK-OV-3 ovarian	112
O=C1C(Cl)=C(Nc2ccc(Nc3ccccc3)c(NC3=C(Cl)C(=O)c4ccccc4C3=O)c2)C(=O)c2ccccc21	SK-OV-3 ovarian	80.5
COc1nc(OC)nc(-c2cc(C(=O)c3ccc(Br)cc3)n3cc(C)cc(C)c23)n1	SK-OV-3 ovarian	53.9
CC(=O)CCS(=O)c1ccccc1 (stereo unspecified)	SK-OV-3 ovarian	110
CNc1nc2ncn(C)c2c(=O)[nH]1	SK-OV-3 ovarian	104
CCCCN(CCC)CCCCCCCCCCN1CCCc2ccccc21	SK-OV-3 ovarian	81.4
COc1ccccc1Cn1cc2c(c1)-c1oncc1CC2	SK-OV-3 ovarian	-18.2
COC(=O)c1ccc2[nH]c(O)c(C(=Nc3ccc(N(C)C(=O)CN4CCN(C)CC4)cc3)c3ccc(OC)cc3)c2c1	SK-OV-3 ovarian	2.38
C=CC1CN2CCC1CC2C(O)c1ccnc2ccc(OC)cc12 (stereo unspecified)	SK-OV-3 ovarian	93.9
Nc1ccc(S(=O)(=O)c2ccc(NO)cc2)cc1	SK-OV-3 ovarian	94.2
CN1C(=O)C(=Cc2coc3ccc(Br)cc3c2=O)C(=O)N(C)C1=O	SK-OV-3 ovarian	96.3
CC1=C(C)C(=O)C(C(C)C2=C(C)C(=O)C(C)=C(C)C2=O)=C(C)C1=O	SK-OV-3 ovarian	98.1
O=C(Nc1ccc(Cl)cn1)C1(c2ccccc2)CCCCC1	SK-OV-3 ovarian	117
CSc1nc(N)n2nccc2n1	SK-OV-3 ovarian	105
CNc1ccc(Nc2ccc(S(=O)(=O)O)cc2)c2c1C(=O)c1ccccc1C2=O	SK-OV-3 ovarian	117
CC(C)(C)C(=O)OCOP(=O)(OCOC(=O)C(C)(C)C)C1CC(O)N(O)C1=O (stereo unspecified)	SK-OV-3 ovarian	52.5
O=C(O)CC1Cc2ccccc2C1C(=O)O (stereo unspecified)	SK-OV-3 ovarian	102
CCCCCCNC(=O)Oc1ccc(/C(=C(/C)Cc2ccc(OC)cc2)c2ccc(OCCN(C)C)cc2)cc1	SK-OV-3 ovarian	83.4
CCCCCCC(=O)C(C)C	SK-OV-3 ovarian	110
O=C(NCCCl)Nc1nccnc1OCc1ccc(F)cc1	SK-OV-3 ovarian	93.1
CCCCCCN(CCCCCC)CCC(=O)Nc1ccc(S(=O)(=O)c2ccc(NC(=O)CCN(CCCCCC)CCCCCC)cc2)cc1	SK-OV-3 ovarian	84.2
CCCCCCCCC1OC1CCCCCCCC(=O)O (stereo unspecified)	SK-OV-3 ovarian	95.3
O=C(Nc1cccc(Cn2c(=O)[nH]c3ccc(Oc4ncccn4)cc3c2=O)c1)c1ccc(Cl)cc1	SK-OV-3 ovarian	66
